Tyrosine-protein phosphatase non-receptor type 1 (Homo sapiens) IC50, compiled from various sources.
Sequence (P18031 whole entry): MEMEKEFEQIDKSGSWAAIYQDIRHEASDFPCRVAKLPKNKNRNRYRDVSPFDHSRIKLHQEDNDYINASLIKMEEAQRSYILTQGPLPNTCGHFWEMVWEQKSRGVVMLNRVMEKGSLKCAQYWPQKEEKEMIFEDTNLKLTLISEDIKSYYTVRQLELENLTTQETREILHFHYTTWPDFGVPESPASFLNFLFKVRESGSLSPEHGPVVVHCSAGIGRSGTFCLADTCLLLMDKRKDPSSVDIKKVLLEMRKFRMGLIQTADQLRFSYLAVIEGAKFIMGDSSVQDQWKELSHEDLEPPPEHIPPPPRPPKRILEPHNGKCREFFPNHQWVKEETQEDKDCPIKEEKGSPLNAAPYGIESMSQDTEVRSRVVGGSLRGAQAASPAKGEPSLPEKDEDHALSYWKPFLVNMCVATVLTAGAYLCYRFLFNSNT
metricName: IC50 (µM)

INSERT INTO results (compound, metricname, reportedrelation, numericreadout) VALUES
  ('CCCCCCCCCCCCCCCC(=O)C1=C(O)[C@@H](CO)OC1=O', 'IC50', '=', 4.5),
  ('CCC(C)C(=O)O[C@@H]1[C@H]2[C@@H]([C@@H](OC(C)=O)[C@@H](C)C(=O)[C@@]34C[C@H](C)[C@H](OC(C)=O)[C@]3(/C=C(\C)[C@H]1O)O4)C2(C)C (stereo partly drawn)', 'IC50', '>', 10),
  ('CC(C(=O)O)c1ccc(CN(Cc2ccc(-c3csnn3)cc2)S(=O)(=O)c2ccc(OCC(=O)O)cc2)cc1 (stereo not drawn)', 'IC50', '=', 153),
  ('O=C(O)C(F)(F)c1ccc(CN(Cc2ccc(-c3csnn3)cc2)S(=O)(=O)c2ccccc2)cc1', 'IC50', '=', 51.8),
  ('C[C@@]12CC[C@@H]3[C@]4(CCC[C@@]3(C)C(=O)OC4)[C@H]1CC[C@]1(C)Oc3ccc(O)cc3C[C@@H]21', 'IC50', '>', 24.4),
  ('O=C1c2ccccc2C(=O)c2c1nnn2Cc1cccc(Cl)c1', 'IC50', '>', 10),
  ('CC(C)(C)OC(=O)N1Cc2cc(NS(=O)(=O)O)ccc2C[C@H]1CO', 'IC50', '>', 500),
  ('O=C(O)COc1ccc(S(=O)(=O)N(Cc2ccc(-c3csnn3)cc2)Cc2ccc(OC(F)(F)C(=O)O)c(Br)c2)cc1', 'IC50', '=', 77.9),
  ('C=C(C)C(=O)Cc1c(OC)ccc(C(=O)/C=C/c2ccc(O)cc2)c1O', 'IC50', '=', 2.33),
  ('CS(=O)(=O)OC1C(Cl)CCCC1Cc1ccc(N2CC(=O)CS2(=O)=O)c(O)c1 (stereo not drawn)', 'IC50', '=', 0.0126),
  ('O=C(O)COc1ccc(CN(Cc2ccc(-c3csnn3)cc2)S(=O)(=O)c2ccc(OCC(=O)O)cc2)cc1', 'IC50', '=', 59.6),
  ('Cc1cc(CN(Cc2ccc(-c3csnn3)cc2)S(=O)(=O)c2ccccc2)ccc1OCC(=O)O', 'IC50', '=', 80.7),
  ('CNC(=O)[C@@H]1Cc2ccc(NS(=O)(=O)O)cc2CN1C(=O)CCc1ccc(OC)cc1', 'IC50', '=', 242),
  ('O=C(O)COc1ccc(S(=O)(=O)N(Cc2ccccc2)Cc2ccc(C(F)(F)P(=O)(O)O)cc2)cc1', 'IC50', '=', 0.6),
  ('O=C(O)COc1c(C(=O)Nc2ccn[nH]2)sc(Br)c1Br', 'IC50', '>', 2500),
  ('CC1=CC[C@H]2C(C)(C)CCC[C@]2(C)[C@H]1CC(CCCCc1ccccc1)OS(=O)(=O)O (stereo partly drawn)', 'IC50', '=', 5.4),
  ('CC1=CCC[C@H]2[C@@H](C)[C@@](C)(CC3=C(O)C(=O)C=C(NCCS(=O)(=O)O)C3=O)CC[C@]12C', 'IC50', '=', 6.7),
  ('CC(=O)O[C@H]1[C@@H]2C(=O)c3c(C)cc(O)c4c3[C@@]1(COC4=O)C1=C2c2c(C)cc(O)c3c(=O)n(-c4ccc(O)cc4[N+](=O)[O-])cc(c23)C1=O', 'IC50', '=', 31.6),
  ('CN(Cc1ccccc1)C(=O)CN(Cc1ccc(C(F)(F)P(=O)(O)O)cc1)S(=O)(=O)c1ccc(OCC(=O)O)cc1', 'IC50', '=', 0.6),
  ('COc1c(C(=O)O)cc(/C=C/c2ccc(C(=O)O)c(O)c2)cc1-c1ccco1', 'IC50', '=', 194),
  ('CC1(C)CC[C@]2(C(=O)NCCCCCC(=O)O)CC[C@]3(C)C(=CC[C@@H]4[C@@]5(C)CC[C@H](O[C@@H]6O[C@H](C(=O)O)[C@@H](O)[C@H](O)[C@H]6O)C(C)(C)[C@@H]5CC[C@]43C)[C@@H]2C1', 'IC50', '=', 0.56),
  ('O=C1NC(=O)/C(=C/c2ccc(OCc3ccc(F)cc3)cc2OCc2ccc(F)cc2)S1', 'IC50', '=', 8),
  ('COc1ccc2cc(O)c(N3CC(=O)NS3(=O)=O)cc2c1', 'IC50', '<', 0.03),
  ('C=C(C)[C@H]1C2=CC(C(=O)OC)=C(C[C@H](C(=C)C)[C@@H](O)C(OC(=O)CCCCCCCCCCCCCCC)C3=C[C@H]1OC3=O)O2 (single isomer, unassigned)', 'IC50', '=', 113),
  ('O=C(O)c1cccc(Br)c1O', 'IC50', '>', 1000),
  ('COc1cc(S(=O)(=O)O)c(C)cc1N=Nc1c(O)ccc2cc(S(=O)(=O)O)ccc12', 'IC50', '=', 33),
  ('CC1(C)CN=C(C(Cc2ccc(C3CC(=O)NS3(=O)=O)cc2)NS(=O)(=O)c2cccc(C(F)(F)F)c2)N1 (stereo not drawn)', 'IC50', '=', 0.93),
  ('O=C1CC(c2ccc(CC(NS(=O)(=O)c3cccc(F)c3)c3nc(-c4ccccc4)c[nH]3)cc2)S(=O)(=O)N1 (stereo not drawn)', 'IC50', '=', 0.16),
  ('CC1=C(CC(CC(=O)c2ccccc2)C(C(=O)O)C(=O)O)[C@@]2(C)CCCC(C)(C)[C@@H]2CC1 (stereo partly drawn)', 'IC50', '=', 68),
  ('O=C(O)c1ccc(CN2C(=O)S/C(=C\c3cccc(O)c3)C2=O)cc1', 'IC50', '=', 10.2),
  ('O=C(O)c1ccc(CN2C(=O)S/C(=C\c3ccc(Oc4ccccc4)cc3)C2=O)cc1', 'IC50', '=', 2.8),
  ('COC(=O)CC[C@@H](C)[C@H]1CC[C@H]2[C@@H]3CC=C4C(C)(C)c5nccnc5C[C@]4(C)[C@H]3CC[C@]12C', 'IC50', '=', 28.2),
  ('Cc1ccc(S(=O)(=O)NC(Cc2ccc(C3CC(=O)NS3(=O)=O)cc2)c2nc3ccccc3[nH]2)cc1 (stereo not drawn)', 'IC50', '=', 0.08);
